# assayExplanation: Pharmacokinetics of Compound 1 in plasma and brain after IP and PO administration (discrete PK)
# Format: in vivo
# conditionParameters: mouse; plasma, PO 3 mg/kg, male C57BL/6 mice
testReadout: Cmax (ng/mL)
Numbers only, in ng/mL.

(Q) Would you mind telling me what Cmax value was observed for Nc1ccc(-c2ccccc2)cc1NC(=O)c1cc2ccc(N3CCNCC3)cc2cn1 ?
(A) 135

====

# assayExplanation: Pharmacokinetics in plasma and brain after IV administration
# Format: in vivo
# conditionParameters: mouse; brain, IV 1 mg/kg, male C57BL/6 mice
# Method: Male C57Bl/6 mice were fasted overnight. Compounds of the invention were dissolved in dimethyl acetamide at 10 times the final concentration, then Solutol HS 15 (BASF) was added to a final concentration of 10%. […] The plasma was extracted with acetonitrile and the level of compound was analyzed by LC/MS/MS. The level of compound in plasma was calculated from a standard curve in mouse plasma. […] The level of compound in brain was calculated from a standard curve in mouse brain tissue. […]
Classify by measured half-life: condition met if it is equal to or exceeds 4 h, condition not met if it is smaller.

Nc1ccc(-c2ccc(F)cc2)cc1NC(=O)c1cc2ccc(N3CCNCC3)cc2cn1 [Compound 9] : condition met
Nc1ccc(-c2cccs2)cc1NC(=O)c1cc2ccc(N3CCNCC3)cc2cn1 [Compound 2] : condition met
Nc1ccc(-c2ccccc2)cc1NC(=O)c1cc2ccc(N3CCNCC3)cc2cn1 [Compound 1] : condition met

(Q) # bool: half-life of Nc1ccc(-c2ccccc2)cc1NC(=O)c1cc2ccc(N3CCNCC3=O)cc2cn1 [Compound 4] >= 4 h
(A) condition not met

(Q) Likewise for Nc1ccc(-c2ccncc2)cc1NC(=O)c1cc2ccc(N3CCNCC3)cc2cn1 [Compound 3] ?
(A) condition met

====

Answer each item with its documented Cmax.
# assayExplanation: Pharmacokinetics in plasma and brain after IV administration
# Assay type: in vivo
# conditionParameters: mouse; brain, IV 1 mg/kg, male C57BL/6 mice
# Protocol: Male C57Bl/6 mice were fasted overnight. Compounds of the invention were dissolved in dimethyl acetamide at 10 times the final concentration, then Solutol HS 15 (BASF) was added to a final concentration of 10%. […] The plasma was extracted with acetonitrile and the level of compound was analyzed by LC/MS/MS. The level of compound in plasma was calculated from a standard curve in mouse plasma. […] The level of compound in brain was calculated from a standard curve in mouse brain tissue. […]
Numbers only, in ng/g.

Recorded Cmax, per entry:
Nc1ccc(-c2cccs2)cc1NC(=O)c1cc2ccc(N3CCNCC3)cc2cn1 : 783
Nc1ccc(-c2ccccc2)cc1NC(=O)c1cc2ccc(N3CCNCC3=O)cc2cn1 : 145
Nc1ccc(-c2ccccc2)cc1NC(=O)c1cc2ccc(N3CCNCC3)cc2cn1 : 675

Please state Cmax for every compound in the list that follows.
1. Nc1ccc(-c2ccncc2)cc1NC(=O)c1cc2ccc(N3CCNCC3)cc2cn1
2. Nc1ccc(-c2ccc(F)cc2)cc1NC(=O)c1cc2ccc(N3CCNCC3)cc2cn1

(A)
1. 126
2. 1000

====

# testSystem: HDAC1 (Homo sapiens, UniProt Q13547)
# Construct: purchased BPS Biosciences
# Sequence (Q13547 whole entry): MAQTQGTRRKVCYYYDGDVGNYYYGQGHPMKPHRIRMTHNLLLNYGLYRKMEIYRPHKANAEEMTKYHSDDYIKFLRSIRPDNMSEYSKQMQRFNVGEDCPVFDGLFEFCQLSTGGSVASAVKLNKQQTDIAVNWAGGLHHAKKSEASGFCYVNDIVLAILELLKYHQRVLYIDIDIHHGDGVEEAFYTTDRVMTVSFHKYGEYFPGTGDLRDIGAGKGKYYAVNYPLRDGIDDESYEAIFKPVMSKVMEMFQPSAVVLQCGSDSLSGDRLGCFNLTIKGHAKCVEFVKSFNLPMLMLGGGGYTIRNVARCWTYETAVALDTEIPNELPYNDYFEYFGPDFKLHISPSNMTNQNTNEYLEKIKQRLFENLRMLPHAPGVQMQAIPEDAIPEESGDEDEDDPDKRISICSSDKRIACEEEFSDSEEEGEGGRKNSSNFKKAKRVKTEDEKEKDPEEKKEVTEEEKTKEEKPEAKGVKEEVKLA
# assayExplanation: HDAC enzyme assay, HDAC1
# Type: biochemical
# conditionParameters: enzyme and compound incubated 24 hours at room temperature
Answer each item with its documented IC50.
Give bare numbers, in nM.

Please state IC50 for every compound in the list that follows.
1. Nc1ccc(-c2ccccc2)cc1NC(=O)c1cc2ccc(N3CCNCC3)cc2cn1
2. CN(C)CCNc1ccc2cc(C(=O)Nc3cc(-c4cccs4)ccc3N)ncc2c1
3. Nc1ccc(-c2ccccc2)cc1NC(=O)c1cc2ccc(N3CCNCC3=O)cc2cn1
4. Nc1ccc(-c2cccs2)cc1NC(=O)c1cc2ccc(N3CCNCC3)cc2cn1

(A)
1: 5; 2: 2; 3: 6; 4: 3

====

Answer each item with its documented Kp.
# assayExplanation: Comparison of brain penetrance between quinolines and isoquinolines (IP dosing)
# Type: in vivo
# conditionParameters: mouse, brain/plasma; IP 5 mg/kg, C57Bl/6 mice; read-out: ratio (AUC brain / AUC plasma)
Numbers only.

Recorded Kp, per entry:
Nc1ccc(-c2cccs2)cc1NC(=O)c1cnc2cc(N3CCNCC3)ccc2c1 [Comparator B] : 0.06
Nc1ccc(-c2cccs2)cc1NC(=O)c1ccc2nc(N3CCNCC3)ccc2c1 [Comparator A] : 0.16

Attention now turns to another entry.
(Q) Would you mind telling me what Kp value was observed for Nc1ccc(-c2cccs2)cc1NC(=O)c1cc2ccc(N3CCNCC3)cc2cn1 [Compound 2] ?
(A) 7.2

====

# assayExplanation: Pharmacokinetics of Compound 1 in plasma and brain after IP and PO administration (discrete PK)
# Assay type: in vivo
# conditionParameters: mouse; plasma, IP 3 mg/kg, male C57BL/6 mice; read-out: Terminal t1/2 (converted)
testReadout: half-life

(Q) Would you mind telling me what half-life value was observed for Nc1ccc(-c2ccccc2)cc1NC(=O)c1cc2ccc(N3CCNCC3)cc2cn1 ?
(A) 3.88 h

====

# assayExplanation: Comparison of brain penetrance between quinolines and isoquinolines (IP dosing)
# Format: in vivo
# conditionParameters: mouse, plasma; IP 5 mg/kg, C57Bl/6 mice
testReadout: AUC (ng·h/mL)
Answers are plain numbers, in ng·h/mL.

Recorded AUC, per entry:
Nc1ccc(-c2cccs2)cc1NC(=O)c1ccc2nc(N3CCNCC3)ccc2c1 [Comparator A] : 12900
Nc1ccc(-c2cccs2)cc1NC(=O)c1cnc2cc(N3CCNCC3)ccc2c1 [Comparator B] : 10800

Attention now turns to another entry.
(Q) Would you mind telling me what AUC value was observed for Nc1ccc(-c2cccs2)cc1NC(=O)c1cc2ccc(N3CCNCC3)cc2cn1 [Compound 2] ?
(A) 3230

====

# assayExplanation: Pharmacokinetics of Compound 1 in plasma and brain after IP and PO administration (discrete PK)
# Type: in vivo
# conditionParameters: mouse; brain, PO 10 mg/kg, male C57BL/6 mice; read-out: Terminal t1/2 (converted)
testReadout: half-life (h)
Numbers only, in h.

(Q) Would you mind telling me what half-life value was observed for Nc1ccc(-c2ccccc2)cc1NC(=O)c1cc2ccc(N3CCNCC3)cc2cn1 ?
(A) 6.76

====

# assayExplanation: Pharmacokinetics in plasma and brain after IV administration
# Format: in vivo
# conditionParameters: mouse, brain/plasma; IV 1 mg/kg, male C57BL/6 mice; read-out: AUCbrain/AUCplasma
Classify by measured Kp: Fulfilled if it is equal to or exceeds 4, Not fulfilled if it is smaller.

As a guide, the following entries are already answered.
Nc1ccc(-c2cccs2)cc1NC(=O)c1cc2ccc(N3CCNCC3)cc2cn1 : Fulfilled
Nc1ccc(-c2ccncc2)cc1NC(=O)c1cc2ccc(N3CCNCC3)cc2cn1 : Not fulfilled
Nc1ccc(-c2ccccc2)cc1NC(=O)c1cc2ccc(N3CCNCC3=O)cc2cn1 : Not fulfilled

Here is another molecule to look at.
(Q) # bool: Kp of Nc1ccc(-c2ccc(F)cc2)cc1NC(=O)c1cc2ccc(N3CCNCC3)cc2cn1 >= 4
(A) Fulfilled

====

# testSystem: HDAC2 (Homo sapiens, UniProt Q92769)
# Construct: purchased BPS Biosciences
# Sequence (Q92769 whole entry): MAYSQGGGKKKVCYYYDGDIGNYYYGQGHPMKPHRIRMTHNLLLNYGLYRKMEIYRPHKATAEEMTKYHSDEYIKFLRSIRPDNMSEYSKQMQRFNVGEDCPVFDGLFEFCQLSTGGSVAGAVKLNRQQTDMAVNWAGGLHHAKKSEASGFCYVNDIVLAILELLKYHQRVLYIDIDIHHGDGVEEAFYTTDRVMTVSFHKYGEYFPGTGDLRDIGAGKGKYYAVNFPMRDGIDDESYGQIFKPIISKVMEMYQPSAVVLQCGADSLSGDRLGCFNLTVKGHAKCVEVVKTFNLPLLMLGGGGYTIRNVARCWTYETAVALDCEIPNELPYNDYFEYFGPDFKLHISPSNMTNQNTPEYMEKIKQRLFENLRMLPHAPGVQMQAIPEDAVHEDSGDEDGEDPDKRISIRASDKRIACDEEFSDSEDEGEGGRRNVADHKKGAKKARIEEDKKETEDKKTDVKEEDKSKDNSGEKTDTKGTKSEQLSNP
# assayExplanation: HDAC enzyme assay, HDAC2
# Assay type: biochemical
# conditionParameters: enzyme and compound incubated 24 hours at room temperature
testReadout: IC50

Nc1ccc(-c2ccncc2)cc1NC(=O)c1cc2ccc(N3CCNCC3)cc2cn1 [Compound 3] : 8 nM
Nc1ccc(-c2cccs2)cc1NC(=O)c1cc2ccc(N3CCNCC3)cc2cn1 [Compound 2] : 10 nM
CN(C)CCNc1ccc2cc(C(=O)Nc3cc(-c4cccs4)ccc3N)ncc2c1 [Compound 5] : 6 nM
Nc1ccc(-c2ccccc2)cc1NC(=O)c1cc2ccc(N3CCNCC3)cc2cn1 [Compound 1] : 13 nM
CN1CCCC1C(=O)Nc1ccc2cc(C(=O)Nc3cc(-c4cccs4)ccc3N)ncc2c1 (stereo not shown) [Compound 7] : 10 nM
Nc1ccc(-c2ccccc2)cc1NC(=O)c1cc2ccc(N3CCNCC3=O)cc2cn1 [Compound 4] : 8 nM

Attention now turns to another entry.
(Q) Would you mind telling me what IC50 value was observed for Nc1ccc(-c2cccs2)cc1NC(=O)c1cc2ccc(NC(=O)C3CCCN3)cc2cn1 (stereo not shown) [Compound 6] ?
(A) 19 nM

====

# assayExplanation: Pharmacokinetics of Compound 1 in plasma and brain after IP and PO administration (discrete PK)
# Type: in vivo
# conditionParameters: mouse, brain/plasma; IP 3 mg/kg, male C57BL/6 mice; read-out: AUCbrain/AUCplasma
testReadout: Kp
Numbers only.

(Q) Would you mind telling me what Kp value was observed for Nc1ccc(-c2ccccc2)cc1NC(=O)c1cc2ccc(N3CCNCC3)cc2cn1 [Compound 1] ?
(A) 15.1

====

# assayExplanation: Pharmacokinetics of Compound 1 in plasma and brain after IP and PO administration (discrete PK)
# Assay type: in vivo
# conditionParameters: mouse; plasma, IP 3 mg/kg, male C57BL/6 mice
testReadout: AUC(0-inf) (ng·h/mL)
Give bare numbers, in ng·h/mL.

(Q) Would you mind telling me what AUC(0-inf) value was observed for Nc1ccc(-c2ccccc2)cc1NC(=O)c1cc2ccc(N3CCNCC3)cc2cn1 [Compound 1] ?
(A) 1320
